inhibition listing for selected compounds.
# system.under.test: Dihydropteroate synthase (Bacillus anthracis)
# assay.summary: Inhibition of Bacillus anthracis DHPS expressed in Escherichia coli BL21 (DE3) at 250 uM after 30 mins
readout.type: inhibition

1) Nc1nc(N)c([N+](=O)[O-])c(=O)[nH]1 : 80%
2) Nc1nc2[nH]c(S)nc2c(=O)[nH]1 : 0%
3) Nc1nc(N)c(N=O)c(=O)[nH]1 : 81%
4) CN1CC(C(=O)O)=Nc2c1nc(N)[nH]c2=O : 93%

---

# system.under.test: Dihydropteroate synthase (Bacillus anthracis, UniProt Q81VW8)
# Sequence (Q81VW8 whole entry): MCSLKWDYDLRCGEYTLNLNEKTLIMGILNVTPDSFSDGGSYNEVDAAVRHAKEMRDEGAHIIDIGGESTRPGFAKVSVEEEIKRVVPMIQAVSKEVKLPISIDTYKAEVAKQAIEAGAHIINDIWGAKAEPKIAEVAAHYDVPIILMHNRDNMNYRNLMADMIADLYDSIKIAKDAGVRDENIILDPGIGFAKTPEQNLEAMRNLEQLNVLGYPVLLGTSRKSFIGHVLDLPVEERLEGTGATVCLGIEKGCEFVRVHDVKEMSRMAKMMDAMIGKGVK
pIC50: −log10 of the molar value.
Decision: pIC50 >= 4 yields y, all other cases yield n.

1) Nc1nnc(N)c2[nH]cnc12 : n
2) Nc1nc2[nH]c(=O)c(C(=O)O)nc2c(=O)[nH]1 : n
3) Nc1nc2c(c(=O)[nH]1)N=C(CCNc1ccc(C(=O)O)cc1)CN2 : y
4) CC(C(=O)O)c1nn(C)c2nc(N)[nH]c(=O)c2c1=O (configuration not stated) : y

---

# system.under.test: UniProt Q81VW8
# Sequence (Q81VW8 whole entry): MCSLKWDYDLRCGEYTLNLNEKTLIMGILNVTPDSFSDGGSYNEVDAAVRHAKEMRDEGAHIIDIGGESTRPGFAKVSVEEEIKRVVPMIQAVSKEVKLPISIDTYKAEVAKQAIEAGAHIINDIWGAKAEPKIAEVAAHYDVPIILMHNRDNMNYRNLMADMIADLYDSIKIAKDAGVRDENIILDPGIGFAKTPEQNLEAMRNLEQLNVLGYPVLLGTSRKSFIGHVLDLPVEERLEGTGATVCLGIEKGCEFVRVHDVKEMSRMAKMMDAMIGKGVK
pIC50: −log10 of the molar value.
readout.type: pIC50

1. Nc1nc2ncc(CCNc3ccc(C(=O)O)cc3)nc2c(=O)[nH]1 : 4.06
2. CN1CC=Nc2c1nc(N)[nH]c2=O : 4.06
3. Nc1nc(N)c([N+](=O)[O-])c(=O)[nH]1 : 3.96

Value source: ChEMBL document CHEMBL1156753
